Consider the following compounds; for each one, report its GI50.
- Tested on: HT-29
- Test Method Notes: NCI tumour cell line growth inhibition, 48 h
Calls of active or inactive are those of the source. Cut-off read from the data, not from the text of the source: active = GI50 up to about 1.1 µM and inactive = higher.

HT-29 GI50 of CNC(=S)N(C1CCCCC1)C1CCCCC1 is 41.1 µM (inactive)

HT-29 GI50 of CC1=C2C(=O)NN=C2CCN1c1ccc(Br)cc1 is > 100 µM (inactive)

HT-29 GI50 of COC(=O)c1c(CC(Cc2ccc3c(c2)CCCC3)C(=O)OC)ccc2c1CCCC2 (stereo unspecified) is 24.4 µM (inactive)

HT-29 GI50 of CC1CCC(C(C)C2C(O)CC3C4CC=C5CC(O)CCC5(C)C4CCC32C)NC1 (stereo unspecified) is 43.1 µM (inactive)

HT-29 GI50 of Cc1nn(C2OC(CO)C(O)C(F)C2O)c(=O)[nH]c1=O (stereo unspecified) is > 100 µM (inactive)

HT-29 GI50 of CC(C)(C)c1cc(O)ccc1O is > 100 µM (inactive)
